# ASSAY_SYSTEM: AHR (Homo sapiens)
# Sequence (P35869 11-848): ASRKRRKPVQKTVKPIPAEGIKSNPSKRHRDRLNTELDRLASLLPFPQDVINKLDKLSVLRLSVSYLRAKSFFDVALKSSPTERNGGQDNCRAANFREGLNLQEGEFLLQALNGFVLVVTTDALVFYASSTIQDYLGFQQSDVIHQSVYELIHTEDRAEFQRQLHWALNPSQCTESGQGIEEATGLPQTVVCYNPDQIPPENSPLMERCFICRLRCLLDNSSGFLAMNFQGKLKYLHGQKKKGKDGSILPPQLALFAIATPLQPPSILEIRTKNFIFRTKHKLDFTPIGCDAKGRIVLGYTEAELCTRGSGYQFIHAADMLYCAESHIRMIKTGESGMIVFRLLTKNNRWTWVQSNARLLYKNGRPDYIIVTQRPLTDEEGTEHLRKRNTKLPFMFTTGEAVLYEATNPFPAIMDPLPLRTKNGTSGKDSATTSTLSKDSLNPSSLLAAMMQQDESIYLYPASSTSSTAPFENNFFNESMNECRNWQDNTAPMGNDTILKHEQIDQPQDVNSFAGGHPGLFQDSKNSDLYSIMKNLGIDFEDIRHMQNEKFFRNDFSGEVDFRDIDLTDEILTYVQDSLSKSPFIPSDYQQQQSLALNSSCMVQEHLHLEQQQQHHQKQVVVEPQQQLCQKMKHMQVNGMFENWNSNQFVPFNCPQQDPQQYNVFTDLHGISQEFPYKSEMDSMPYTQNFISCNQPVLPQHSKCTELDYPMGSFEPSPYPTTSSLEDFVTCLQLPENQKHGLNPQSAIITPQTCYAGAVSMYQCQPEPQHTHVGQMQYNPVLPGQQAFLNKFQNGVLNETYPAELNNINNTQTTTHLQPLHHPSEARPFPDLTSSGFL
# TEST_DETAILS: In vitro assay 1: antagonism in human cell line (transactivation assay, U87 cells prestimulated with kynurenic acid, DRE firefly luciferase reporter)
# Type: cell-based
# Design: host or cells: U87 glioblastoma cells, stably transfected with DRE firefly luciferase and renilla reporter constructs
# MEASUREMENT_SETUP: 150 uM kynurenic acid, 20 hours, read-out: Assay 1: AHR-luc Hum Antagonism IC50
Listed below: IC50 values for each entry.
Respond with the bare value in nM.

* Cn1cc(-n2nc(-c3ccc(Cl)cc3)cc(C(=O)N[C@@H]3CCC[C@]3(C)O)c2=O)cn1 (single isomer, unassigned) [Example 336] | 42.9
* C[C@H](O)[C@H](C)NC(=O)c1cc(-c2ccc(OC(F)F)cc2)nn(-c2cccnc2)c1=O | 60.2
* C[C@@H](CO)NC(=O)c1cc(-c2ccc(Cl)cc2)nn(-c2csc(Cl)c2)c1=O | 11.8
* C[C@@H](NC(=O)c1cc(-c2ccc(Cl)cc2)nn(-c2cccnc2)c1=O)C(C)(C)O | 81.5
* O=C(N[C@H]1CCC[C@@H]1O)c1cc(-c2ccc(C(F)F)nc2)nn(-c2cccnc2)c1=O | 209

Task: GET /values?readout=IC50&item= `C[C@@H](CO)NC(=O)c1cc(-c2ccc(C#N)cc2)nn(-c2cccnc2)c1=O`
Result: 736

Task: GET /values?readout=IC50&item= CCC(CO)NC(=O)c1cc(-c2ccc(C)cc2)nn(-c2cnn(C)c2)c1=O (single isomer, unassigned) [Example 5]
Result: 5.99

Task: GET /values?readout=IC50&item= O=C(N[C@H]1CCCC(F)(F)[C@@H]1O)c1cc(-c2ccc(Cl)cc2)nn(-c2cccnc2)c1=O (racemic) [Example 143]
Result: 9.61

Task: GET /values?readout=IC50&item= `COC[C@@H](CO)NC(=O)c1cc(-c2ccc(Cl)cc2)nn(-c2cnn(C)c2)c1=O`
Result: 60.8

Task: GET /values?readout=IC50&item= `C[C@H](CO)NC(=O)c1cc(-c2ccc(C(F)(F)F)cc2)nn(-c2cnn(C)c2)c1=O`
Result: 34.3

Task: GET /values?readout=IC50&item= O=C(NCC(O)C(F)(F)F)c1cc(-c2ccc(Cl)cc2)nn(-c2cccnc2)c1=O (single isomer, unassigned; (+)) [Example 90]
Result: 21.7

All values here come from patent US12522594B2.
